Every entry's value here was drawn from paper PMC8316502.

# targetUnderTest: S. stellulata AepX
# measurementNotes: Microscale thermophoresis ligand binding of recombinant S. stellulata AepX
# Set-up: species or system Stappia stellulata
# conditions: microscale thermophoresis, recombinant S. stellulata AepX, 22 °C; read-out: Kd (μM) AepX Ss
quantity: Kd (µM)
Answers are plain numbers, in µM.

# Kd measured on S. stellulata AepX for item NCP(=O)(O)O [Aminomethylphosphonate] = 4490
